meta.source: patent US20160256560A1

# Assay info: physchem
Where no end group is shown, it is not given here.
For each of the substances below, state its pKa.
Keep the answer to the number alone.

Kindly note the recorded pKa for AAEQNPIYWARYADWLFTTPLLLLDLALLVDADEGTCG [WT-Cys1] , which is 6.14

Kindly note the recorded pKa for Ac-AAEQNPIYWARYADWLFTTPLLLLDLALLVDADEGTKCG [pHLIP-KC] , which is 6.16

Kindly note the recorded pKa for GGEQNPIYWARYADWLFTTPLLLLDLALLVDADEGT [WT-1] , which is 6

Kindly note the recorded pKa for AEDQNPYWARYADWLFTTPLLLLDLALLVDCG [Fast1-Cys] , which is 6.1

Kindly note the recorded pKa for AEQNPIYWARYADWLFTTPL [Short-Cys] , which is 4.4
